- Test System: HCV NS5B S365A mutant (Hepatitis C virus genotype 1b, UniProt Q9WMX2, S2784A)
- Construct: HCV NS5B C316Y or S365A mutant as indicated
- Sequence (Q9WMX2 2420-3010 S2784A): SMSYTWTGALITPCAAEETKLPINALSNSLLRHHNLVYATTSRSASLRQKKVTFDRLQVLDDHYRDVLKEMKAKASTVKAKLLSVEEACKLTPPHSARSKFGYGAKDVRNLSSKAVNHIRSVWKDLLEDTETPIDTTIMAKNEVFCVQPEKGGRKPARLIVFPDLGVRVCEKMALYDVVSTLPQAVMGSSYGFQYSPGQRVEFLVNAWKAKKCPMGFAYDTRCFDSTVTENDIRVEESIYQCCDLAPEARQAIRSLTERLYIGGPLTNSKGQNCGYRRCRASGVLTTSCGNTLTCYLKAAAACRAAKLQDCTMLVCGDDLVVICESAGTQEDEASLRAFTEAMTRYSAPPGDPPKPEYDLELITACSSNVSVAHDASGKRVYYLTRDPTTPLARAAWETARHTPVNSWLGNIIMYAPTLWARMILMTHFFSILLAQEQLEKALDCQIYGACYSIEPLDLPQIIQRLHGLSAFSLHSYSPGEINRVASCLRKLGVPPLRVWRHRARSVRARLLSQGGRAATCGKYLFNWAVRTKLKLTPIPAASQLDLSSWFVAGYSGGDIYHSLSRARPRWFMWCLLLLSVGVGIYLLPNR
- Assay Remarks: Activity against HCV NS5B S365A mutant
pEC50: −log10 of the molar value.
Observable: pEC50

- CC1c2cc3c(-c4ncc[nH]4)c(-c4ccc(F)cc4)oc3cc2N(S(C)(=O)=O)CCN1C (stereo not drawn): 6.00 to 6.70
- CNC(=O)c1c(-c2ccc(F)cc2)oc2cc3c(cc12)[C@H](C)OC(C)(C)CN3S(C)(=O)=O (single isomer, unassigned): 6.00 to 6.70
- CNC(=O)c1c(-c2ccc(Oc3ccc(F)cc3)cc2)oc2cc3c(cc12)[C@H](C)OC(C)(C)CN3S(C)(=O)=O (single isomer, unassigned): 6.00 to 6.70
- CNC(=O)c1c(-c2ccc(Oc3ccc(F)cc3)cc2)oc2cc3c(cc12)[C@H](C)OC1(CC1)CN3S(C)(=O)=O (single isomer, unassigned): < 6.00
- CNC(=O)c1c(-c2ccc(F)cc2)oc2cc3c(cc12)C(C)N(CCO)CCN3S(C)(=O)=O (stereo not drawn): 6.00 to 6.70
- CNC(=O)c1c(-c2ccc(F)cc2)oc2cc3c(cc12)[C@H](C)N(C)C(=O)CN3S(C)(=O)=O (single isomer, unassigned): 6.00 to 6.70

====

- System: 1b_Huh-Luc/Neo-ET cell line (bicistronic genotype 1b replicon in Huh 7 cells)
- Assay Remarks: HCV 1b replicon assay, luciferase readout
- Assay type: cell-based, HCV genotype 1b
- Conditions Used: Hepatitis C virus, Huh-7, class symbol; HCV genotype 1b replicon; read-out: Inhibition of HCV genotype 1b replicon
EC50 listing for selected compounds.
Observable: EC50

* CS(=O)(=O)N1CCCCCc2cc3c(-c4ncc[nH]4)c(-c4ccc(F)cc4)oc3cc21 | < 10 nM
* CNC(=O)c1c(-c2ccc(F)cc2)oc2cc3c(cc12)[C@H](C)NC(=O)CN3S(C)(=O)=O (single isomer, unassigned) | < 10 nM
* CNC(=O)c1c(-c2ccc(F)cc2)oc2cc3c(cc12)C(C)OC(C(=O)N1CCOCC1)CN3S(C)(=O)=O (stereo not shown) | 10 to 100 nM
* CNC(=O)c1c(-c2ccc(F)cc2)oc2cc3c(cc12)C(C)OC(CNS(C)(=O)=O)CN3S(C)(=O)=O (stereo not shown) | 10 to 100 nM

====

- Test system: 1b_Huh-Luc/Neo-ET cell line (bicistronic genotype 1b replicon in Huh 7 cells)
- Assay Remarks: HCV 1b replicon assay, luciferase readout
- Assay type: cell-based, HCV genotype 1b
- Conditions Used: Hepatitis C virus, Huh-7, class symbol; HCV genotype 1b replicon; read-out: Inhibition of HCV genotype 1b replicon
pEC50: −log10 of the molar value.
Measured pEC50 by item
Observable: pEC50

* CNC(=O)c1c(-c2ccc(F)cc2)nn2cc3c(cc12)C(C)CCCN3S(C)(=O)=O (stereo not shown) [Compound B50] | 6.00 to 7.00
* C=C1CCCN(S(C)(=O)=O)c2cc3oc(-c4ccc(F)cc4OC)c(C(=O)NC)c3cc21 [Compound B83] | < 6.00
* CNC(=O)c1c(-c2ccc(F)cc2)oc2cc3c(cc12)[C@@H](C)O[C@@H](CO)CN3S(C)(=O)=O [Compound B211] | < 6.00
* CNC(=O)c1c(-c2ccc(F)cc2)oc2cc3c(cc12)[C@H](C)c1ccccc1CN3S(C)(=O)=O (single isomer, unassigned) [Compound B203] | 7.00 to 8.00

====

- Test System: HCV NS5B C316Y mutant (Hepatitis C virus genotype 1b, UniProt Q9WMX2, C2735Y)
- Construct: HCV NS5B C316Y or S365A mutant as indicated; expressed in transfected cells
- Sequence (Q9WMX2 2420-3010 C2735Y): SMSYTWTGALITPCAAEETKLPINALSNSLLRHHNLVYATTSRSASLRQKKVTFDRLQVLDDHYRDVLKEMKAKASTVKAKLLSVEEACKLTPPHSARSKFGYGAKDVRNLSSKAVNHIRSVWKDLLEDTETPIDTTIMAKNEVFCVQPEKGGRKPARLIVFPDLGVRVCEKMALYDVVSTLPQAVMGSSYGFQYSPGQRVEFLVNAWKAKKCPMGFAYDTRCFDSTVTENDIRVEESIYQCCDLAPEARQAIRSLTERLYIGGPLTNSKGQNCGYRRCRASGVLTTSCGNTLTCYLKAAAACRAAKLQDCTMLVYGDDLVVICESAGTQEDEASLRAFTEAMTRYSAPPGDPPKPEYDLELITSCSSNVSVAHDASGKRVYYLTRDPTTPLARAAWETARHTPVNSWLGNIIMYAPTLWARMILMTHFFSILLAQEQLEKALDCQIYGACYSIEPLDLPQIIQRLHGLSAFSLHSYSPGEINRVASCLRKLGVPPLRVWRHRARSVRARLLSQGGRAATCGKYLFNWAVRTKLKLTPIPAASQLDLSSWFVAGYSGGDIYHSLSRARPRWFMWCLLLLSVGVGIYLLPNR
- Assay Remarks: Activity against HCV NS5B C316Y mutant
- Type: cell-based
- Conditions Used: class symbol; C316Y mutant
Observable: Inhibition of HCV N55B C316Y mutant

- CNC(=O)c1c(-c2ccc(F)cc2)oc2cc3c(cc12)C(C)N(CCO)CCN3S(C)(=O)=O (stereo not drawn): †††
- CNC(=O)c1c(-c2ccc(F)cc2)oc2cc3c(cc12)[C@H](C)O[C@H](CO)CN3S(C)(=O)=O: †††
- CNC(=O)c1c(-c2ccc(Oc3ccc(F)cc3)cc2)oc2cc3c(cc12)[C@H](C)CCCN3S(C)(=O)=O (single isomer, unassigned): †††

====

- Tested on: 1b_Huh-Luc/Neo-ET cell line (bicistronic genotype 1b replicon in Huh 7 cells)
- Assay Remarks: HCV 1b replicon assay, luciferase readout
- Type: cell-based, HCV genotype 1b
- Conditions Used: Hepatitis C virus, Huh-7, class symbol; HCV genotype 1b replicon; read-out: Inhibition of HCV genotype 1b replicon
pEC50: −log10 of the molar value.
Observable: pEC50

- CNC(=O)c1c(-c2ccc(F)cc2)oc2cc3c(cc12)C(C)OC(C(=O)N1CCCC1)CN3S(C)(=O)=O (stereo not shown): 7.00 to 8.00
- CNC(=O)c1c(-c2ccc(F)cc2)oc2cc3c(cc12)C(C)N(C)C(=O)CN3S(C)(=O)=O (stereo not shown): 7.00 to 8.00
- CNC(=O)c1c(-c2ccc(Oc3ccc(F)cc3)cc2)oc2cc3c(cc12)CCCCN3S(C)(=O)=O: 7.00 to 8.00
- CNC(=O)c1c(-c2ccc(F)cc2)oc2cc3c(cc12)C(C)N(CC(=O)O)CCN3S(C)(=O)=O (stereo not shown): < 6.00
- CNC(=O)c1c(-c2ccc(Oc3ccc(F)cc3)cc2)oc2cc3c(cc12)C(C)=CCCN3S(C)(=O)=O: 7.00 to 8.00
- CNC(=O)c1c(-c2ccc(Oc3ccc(F)cc3)cc2)oc2cc3c(cc12)[C@@H](C)O[C@@H](CS(C)(=O)=O)CN3S(C)(=O)=O: 6.00 to 7.00
- CNC(=O)c1c(-c2ccc(F)cc2)oc2cc3c(cc12)C(C)N(Cc1ccc(F)cc1)CCN3S(C)(=O)=O (stereo not shown): 7.00 to 8.00

====

- Test system: HCV 2a
- Assay Remarks: HCV 2a replicon assay
- Type: cell-based
- Conditions Used: Hepatitis C virus; class symbol; cell marked (HCV genotype 2a replicon); read-out: Inhibition of HCV genotype 2a replicon
Observable: EC50

- CNC(=O)c1c(-c2ccc(F)cc2)nn2cc3c(cc12)C=CCCN3S(C)(=O)=O [Compound B74]: > 1 µM
- CS(=O)(=O)N1CCCCc2cc3c(-c4nnn[nH]4)c(-c4ccc(F)cc4)oc3cc21 [Compound B65]: > 1 µM
- C=CC1CCCN(S(C)(=O)=O)c2cc3oc(-c4ccc(F)cc4)c(C(=O)NC)c3cc21 (centres unmarked) [Compound B60]: 0.01 to 0.1 µM
- CNC(=O)c1c(-c2ccc(Oc3ccc(Cl)cc3)cc2)nn2cc3c(cc12)C(C)CCCN3S(C)(=O)=O (centres unmarked) [Compound B99]: 0.1 to 1 µM
- CNC(=O)c1c(-c2ccc(F)cc2)oc2cc3c(cc12)C(C)=CCCN3S(C)(=O)=O [Compound B62]: > 1 µM
- CNC(=O)c1c(-c2ccc(F)cc2)nn2cc3c(cc12)C(=O)CCCN3S(C)(=O)=O [Compound B69]: > 1 µM
- CS(=O)(=O)N1CCCCc2cc3c(C4=NCCN4)c(-c4ccc(F)cc4)oc3cc21 [Compound B66]: > 1 µM
- C=C1CCCN(S(C)(=O)=O)c2cn3nc(-c4ccc(F)cc4)c(C(=O)NC)c3cc21 [Compound B68]: > 1 µM

====

Reported pEC50 values are given for each entry in this list.
- Test system: 1b_Huh-Luc/Neo-ET cell line (bicistronic genotype 1b replicon in Huh 7 cells)
- Assay Remarks: HCV 1b replicon assay, luciferase readout
- Format: cell-based, HCV genotype 1b
- Conditions Used: Hepatitis C virus, Huh-7, class symbol; HCV genotype 1b replicon; read-out: Inhibition of HCV genotype 1b replicon
pEC50: −log10 of the molar value.
Observable: pEC50

- CNC(=O)c1c(-c2ccc(Oc3ccc(F)cc3)cc2)oc2cc3c(cc12)[C@@H](C)OC(C)(C)CN3S(C)(=O)=O (single isomer, unassigned): 6.00 to 7.00
- CNC(=O)c1c(-c2ccc(F)cc2)oc2cc3c(cc12)C(O)CCCCN3S(C)(=O)=O (stereo not drawn): 6.00 to 7.00
- CNC(=O)c1c(-c2ccc(F)cc2)oc2cc3c(cc12)[C@@H](C)O[C@H](CO)CN3S(C)(=O)=O: 7.00 to 8.00
- [2H]C([2H])([2H])NC(=O)c1c(-c2ccc(F)cc2)oc2cc3c(cc12)C1CC1CCN3S(C)(=O)=O (stereo not drawn): > 8.00
- CNC(=O)c1c(-c2ccc(F)cc2)oc2cc3c(cc12)C(C)c1ccccc1CN3S(C)(=O)=O (stereo not drawn): 7.00 to 8.00
- CNC(=O)c1c(-c2ccc(F)cc2)oc2cc3c(cc12)[C@H](C)n1nncc1CN3S(C)(=O)=O (single isomer, unassigned): > 8.00
- CS(=O)(=O)N1CCCCc2cc3c(-c4ncn[nH]4)c(-c4ccc(F)cc4)oc3cc21: 6.00 to 7.00
- CNC(=O)c1c(-c2ccc(F)cc2)oc2cc3c(cc12)C(C)OCC(CO)N3S(C)(=O)=O (stereo not drawn): 7.00 to 8.00
- CNC(=O)c1c(-c2ccc(F)cc2)oc2cc3c(cc12)C(C)OC(CN(C)C)CN3S(C)(=O)=O (stereo not drawn): 7.00 to 8.00
- CNC(=O)c1c(-c2ccc(F)cc2)oc2cc3c(cc12)[C@@H](C)n1nncc1CN3S(C)(=O)=O (single isomer, unassigned): 7.00 to 8.00
- CNC(=O)c1c(-c2ccc(F)cc2)oc2cc3c(cc12)C(C)OC(C(=O)NC)CN3S(C)(=O)=O (stereo not drawn): 7.00 to 8.00
- CNC(=O)c1c(-c2ccc(Oc3ccc(F)cc3)cc2)oc2cc3c(cc12)C(C)OC(C)CN3S(C)(=O)=O (stereo not drawn): > 8.00
- CNC(=O)c1c(-c2ccc(Oc3ccc(F)cc3)cc2)oc2cc3c(cc12)C(C)OC1(CC1)CN3S(C)(=O)=O (stereo not drawn): 7.00 to 8.00
- CNC(=O)c1c(-c2ccc(Oc3ccc(F)cc3)cc2)oc2cc3c(cc12)[C@@H](C)N(C)C(=O)CN3S(C)(=O)=O (single isomer, unassigned): 6.00 to 7.00
- [2H]C([2H])([2H])NC(=O)c1c(-c2ccc(F)cc2)nn2cc3c(cc12)CCCCCN3S(C)(=O)=O: 7.00 to 8.00
- CC1OCCN(S(C)(=O)=O)c2cc3oc(-c4ccc(F)cc4)c(-c4ncc[nH]4)c3cc21 (stereo not drawn): > 8.00
- C=CCN1C(=O)CN(S(C)(=O)=O)c2cc3oc(-c4ccc(F)cc4)c(C(=O)NC)c3cc2C1C (stereo not drawn): 7.00 to 8.00
- CNC(=O)c1c(-c2ccc(Oc3ccc(F)cc3)cc2)oc2cc3c(cc12)C(C)N(C)C(=O)CN3S(C)(=O)=O (stereo not drawn): 7.00 to 8.00
- CNC(=O)c1c(-c2ccc(F)cc2)oc2cc3c(cc12)CC(C)CCN3S(C)(=O)=O (stereo not drawn): > 8.00
- CNC(=O)c1c(-c2ccc(F)cc2)oc2cc3c(cc12)CCCCN3S(=O)(=O)C1CC1: 7.00 to 8.00
- CNC(=O)c1c(-c2ccc(F)cc2)oc2cc3c(cc12)CCCCCN3S(C)(=O)=O: > 8.00
- CNC(=O)c1c(-c2ccc(F)cc2)oc2cc3c(cc12)[C@@H]1C[C@@H]1CCN3S(C)(=O)=O (single isomer, unassigned): > 8.00
- CNC(=O)c1c(-c2ccc(Oc3ccc(F)cc3)cc2)oc2cc3c(cc12)C(C)NC(=O)CN3S(C)(=O)=O (stereo not drawn): 7.00 to 8.00
- CNC(=O)c1c(-c2ccc(F)cc2)oc2cc3c(cc12)C1CC1CCN3S(C)(=O)=O (stereo not drawn): > 8.00
